system: LNCaP tumor-transplanted mouse; experiment: Internal radioactivity distribution using LNCaP tumor-transplanted mouse; assay type: in vivo; settings: 4 h after administration
The threshold is 0.3 % ID/g. Values of Brain beneath it are tagged Satisfied; values meeting or exceeding it are tagged Not satisfied.

[in] Just wondering, is Brain of O=C([O-])CN1CCN(C(CCC(=O)NCCCC[C@H](NC(=O)N[C@@H](CCC(=O)O)C(=O)O)C(=O)O)C(=O)[O-])CCN(CC(=O)[O-])CCN(C(CCC(=O)Nc2ccccc2)C(=O)[O-])CC1.[111In+3] (some centres unmarked) [[^111In]In-PSMA-DB, reference compound] below 0.3 % ID/g?
[out] Satisfied

[in] Just wondering, is Brain of O=C([O-])CN(Cc1cccc(C(=O)[O-])n1)C[C@H](Cc1ccc(NC(=O)CCCCCNC(=O)CCC(=O)NCCCC[C@H](NC(=O)N[C@@H](CCC(=O)O)C(=O)O)C(=O)O)cc1)N(CC(=O)[O-])Cc1cccc(C(=O)[O-])n1.[111In+3] [[^111In]In-Octapa-1, reference compound] below 0.3 % ID/g?
[out] Satisfied

[in] Just wondering, is Brain of O=C([O-])CN(Cc1cccc(C(=O)[O-])n1)C[C@H](Cc1ccc(NC(=O)[C@H](CCCCNC(=O)CCC(=O)NCCCC[C@H](NC(=O)N[C@@H](CCC(=O)O)C(=O)O)C(=O)O)NC(=O)COCCOCCOCC(=O)N[C@@H](CCCCNC(=O)CCCc2ccc(I)cc2)C(=O)O)cc1)N(CC(=O)[O-])Cc1cccc(C(=O)[O-])n1.[111In+3] [[^111In]In-Octapa-3] below 0.3 % ID/g?
[out] Not satisfied

[in] Just wondering, is Brain of O=C(O)CC[C@H](NC(=O)N[C@@H](CCCCNC(=O)[C@H](Cc1ccc2ccccc2c1)NC(=O)[C@H]1CC[C@H](CNC(=O)CCC(C(=O)O)N2CCN(CC(=O)O)CCN(C(CCC(=O)N[C@@H](CCCCNC(=O)CCCc3ccc(I)cc3)C(=O)O)C(=O)O)CCN(CC(=O)O)CC2)CC1)C(=O)O)C(=O)O (some centres unmarked) [[^111In]In-PSMA-NAT-DA1, metal not drawn] below 0.3 % ID/g?
[out] Not satisfied

[in] Just wondering, is Brain of O=C([O-])CN1CCN(C(CCC(=O)NCCCC[C@H](NC(=O)N[C@@H](CCC(=O)O)C(=O)O)C(=O)O)C(=O)[O-])CCN(CC(=O)[O-])CCN(C(CCC(=O)N[C@@H](CCCCNC(=O)CCCc2ccc(I)cc2)C(=O)O)C(=O)[O-])CC1.[111In+3] (some centres unmarked) [[^111In]In-PSMA-DA1] below 0.3 % ID/g?
[out] Not satisfied

[in] Just wondering, is Brain of O=C([O-])CN(CCN(CCc1ccc(NC(=O)CCCCCNC(=O)CCC(=O)NCCCC[C@H](NC(=O)N[C@@H](CCC(=O)O)C(=O)O)C(=O)O)cc1)CCN(CC(=O)[O-])Cc1cccc(C(=O)[O-])n1)Cc1cccc(C(=O)[O-])n1.[111In+3] [[^111In]In-Neunpa-1, reference compound] below 0.3 % ID/g?
[out] Satisfied

[in] Just wondering, is Brain of O=C([O-])CN(Cc1cccc(C(=O)[O-])n1)C[C@H](Cc1ccc(NC(=O)[C@H](CCCCNC(=O)CCC(=O)NCCCC[C@H](NC(=O)N[C@@H](CCC(=O)O)C(=O)O)C(=O)O)NC(=O)CCCc2ccc(I)cc2)cc1)N(CC(=O)[O-])Cc1cccc(C(=O)[O-])n1.[111In+3] [[^111In]In-Octapa-2] below 0.3 % ID/g?
[out] Satisfied

[in] Just wondering, is Brain of O=C([O-])CN(CCN(CCc1ccc(NC(=O)[C@H](CCCCNC(=O)CCC(=O)NCCCC[C@H](NC(=O)N[C@@H](CCC(=O)O)C(=O)O)C(=O)O)NC(=O)CCCc2ccc(I)cc2)cc1)CCN(CC(=O)[O-])Cc1cccc(C(=O)[O-])n1)Cc1cccc(C(=O)[O-])n1.[111In+3] [[^111In]In-Neunpa-2] below 0.3 % ID/g?
[out] Satisfied
